# Tested on: 786-O
# test-protocol: Euclidean distance of Cell Painting phenotypic profile (signed KS, 77 features) to DMSO centroid (dimensionless distance); 5 or 10 uM (library dependent); higher = stronger phenotypic change vs DMSO (phenoactivity)
# settings: 48 h
Structures can show the parent of a compound that is named as a salt.
measure-name: Euclidean distance
Numbers only.

Okay, here is my list. What is Euclidean distance for each of these?
1. OC1(c2ccc(Cl)c(C(F)(F)F)c2)CCN(CCCC(c2ccc(F)cc2)c2ccc(F)cc2)CC1 [Penfluridol]
2. CC(CNC(=O)c1cccnc1)NC(=O)c1cccnc1 (centres undefined) [Nicaraven]
3. COc1ccnc2[nH]cc(C(=O)C(=O)N3CCN(C(=O)c4ccccc4)C[C@H]3C)c12
4. O=C(O)Cc1ccc(-c2ccccc2)cc1 [4-Biphenylacetic acid]
5. CN(C)CCC=C1c2ccccc2CCc2ccccc21 [Amitriptyline HCl]
6. CN1CCN(c2cc3c(cc2F)c(=O)c(C(=O)O)cn3-c2ccc(F)cc2)CC1 [Difloxacin hydrochloride]
7. CCn1c(=O)c(-c2cc(NC(=O)Nc3ccccc3)c(F)cc2Br)cc2cnc(NC)cc21 [Ripretinib (DCC-2618)]

1: 4.2; 2: 1.31; 3: 0.998; 4: 1.14; 5: 1.34; 6: 1.51; 7: 2.86

Take each entry in turn and give its Euclidean distance.
1. CO[C@H]1C[C@@H]2CC[C@@H](C)[C@@](O)(O2)C(=O)C(=O)N2CCCC[C@H]2C(=O)O[C@H]([C@H](C)C[C@@H]2CC[C@@H](OP(C)(C)=O)[C@H](OC)C2)CC(=O)[C@H](C)/C=C(\C)[C@@H](O)[C@@H](OC)C(=O)[C@H](C)C[C@H](C)/C=C/C=C/C=C/1C [Ridaforolimus (Deforolimus. MK-8669)]
2. Oc1ccc([C@H]2COc3cc(O)ccc3C2)cc1 [Equol]
3. CNC(=O)c1ccc(N2C(=S)N(c3cnc(C#N)c(C(F)(F)F)c3)C(=O)C23CCC3)cc1F
4. Cc1ccc(C(=O)Nc2ccc(Oc3cc4cnn(C)c4cc3-c3cn[nH]c3)c(F)c2)c(=O)n1-c1ccc(F)cc1
5. CCOC(=O)c1ncn2c1CN(C)C(=O)c1cc(F)ccc1-2 [Flumazenil]
6. CC(C)NC(=N)NC(=N)Nc1ccc(Cl)cc1 [Proguanil]
7. CO[C@H]1C[C@@H]2CC[C@@H](C)[C@@](O)(O2)C(=O)C(=O)N2CCCC[C@H]2C(=O)O[C@H]([C@H](C)C[C@@H]2CC[C@@H](O)[C@H](OC)C2)CC(=O)[C@H](C)/C=C(\C)[C@@H](O)[C@@H](OC)C(=O)[C@H](C)C[C@H](C)/C=C/C=C/C=C/1C [Rapamycin (Sirolimus)]

1. 2.74
2. 1.09
3. 1.4
4. 1.83
5. 1.08
6. 1.21
7. 2.74

Below is a list of molecules. For each, state its recorded Euclidean distance.
1. CN(CCOc1ccc(CC2SC(=O)NC2=O)cc1)c1ccccn1 (centres undefined) [Rosiglitazone maleate]
2. CC(C)c1nc(CN(C)C(=O)N[C@@H](CCN2CCOCC2)C(=O)N[C@H](CC[C@H](Cc2ccccc2)NC(=O)OCc2cncs2)Cc2ccccc2)cs1 [Cobicistat (GS-9350)]
3. Cc1ccc(-n2sc(=O)n(Cc3ccc(F)cc3)c2=O)cc1
4. Cc1ncc([N+](=O)[O-])n1CC(O)CCl (centres undefined) [Ornidazole]

0.964
2.05
1.53
1.17
